Experiment: Permeability of compound at pH 7.4 by PAMPA
Assay type: ADME
Settings: read-out: Peff
Measured Quantity: Papp (×10⁻⁶ cm/s)

Reference set (2 entries):
- Compound: "O=C(Cc1ccccc1)Nc1ccc(-c2nc3cc(NC(=O)Cc4ccccc4)ccc3[nH]2)cc1"
  Observed Value: 204
- Compound: "CCCSc1ccc2nc(NC(=O)OC)[nH]c2c1"
  Observed Value: 284

I: Cc1ccc(S(=O)(=O)Cc2nc(-c3ccc(C(=O)NCc4cccnc4)cc3)oc2C)cc1
II: NC(=O)N1c2ccccc2C=Cc2ccccc21 [CARBAMAZEPINE]
Incoming: Please indicate which entry, I or II , has the lower recorded Papp value. # answer = label of selected item
Outgoing: II
(II: 266 ×10⁻⁶ cm/s, I: 617 ×10⁻⁶ cm/s)

====

pEC50: recorded values
Test system: KOPN-8
Test: Antiproliferative activity against human KOPN8 assessed as reduction in cell viability after 72 hrs by CellTiter-Glo assay
Type: functional, cell-based
Conditions: KOPN-8, 72 h
The scale used: pEC50 is minus the common logarithm of the concentration in molar units.

Incoming: // fetch KOPN-8 pEC50 for `COc1ccc(-c2[nH]nc(C)c2-c2ccc(OC)c(O)c2)c(O)c1`
Outgoing: 4.46

Incoming: Same for `CC(C)C(=O)Nc1ccc2oc(-c3ccc(C(C)(C)C)cc3)nc2c1`
Outgoing: 5.95

Incoming: Similarly, `COc1ccc(O)c(C(=O)NCCc2ccc(-c3cnc(C)s3)cc2)c1` ?
Outgoing: 4.44

Incoming: Next compound up: `O=C(Cc1ccccc1)Nc1ccc(-c2nc3cc(NC(=O)Cc4ccccc4)ccc3[nH]2)cc1`
Outgoing: 6.74

Incoming: One more compound: `COc1cc(-c2cc3ccccc3[nH]2)[nH]c1/C=C1\N=C(C)C=C1C`
Outgoing: 4.83

====

Test: Half life in human plasma
Format: ADME, cell-free
Entries annotated with measured half-life

Incoming: Sample CC1CC(OC(=O)C(O)c2ccccc2)CC(C)(C)N1C (centres undefined) [EUCATROPINE] — what was its half-life?
Outgoing: 0.42 h

Incoming: Proceed to `CC(C)C(=O)Nc1ccc2oc(-c3ccc(C(C)(C)C)cc3)nc2c1`
Outgoing: > 48 h

Incoming: Now consider `Cc1ccc(S(=O)(=O)Cc2nc(-c3ccc(C(=O)NCc4cccnc4)cc3)oc2C)cc1` .
Outgoing: > 48 h

Incoming: Same thing, different compound: `O=C(Cc1ccccc1)Nc1ccc(-c2nc3cc(NC(=O)Cc4ccccc4)ccc3[nH]2)cc1`
Outgoing: > 48 h

====

Experiment: Permeability of compound at pH 7.4 assessed as drug retention by PAMPA
Format: ADME
Measured Quantity: permeability (%)

I: CC(C)C(=O)Nc1ccc2oc(-c3ccc(C(C)(C)C)cc3)nc2c1
II: Cc1ccc(S(=O)(=O)Cc2nc(-c3ccc(C(=O)NCc4cccnc4)cc3)oc2C)cc1
III: CNC(=C[N+](=O)[O-])NCCSCc1ccc(CN(C)C)o1
Incoming: Rank the items in ascending order with respect to permeability. # respond with the labels, arranged in the requested order
Outgoing: III, II, I
(III: 0%, II: 24.8%, I: 53.6%)

====

Listed below: half-life values for each entry.
Experiment: Half life in simulated gastric fluid
Type: ADME

Reference set, count: 3
- Smiles Text: "CC(C)C(=O)Nc1ccc2oc(-c3ccc(C(C)(C)C)cc3)nc2c1"
  half-life: "> 48 h"
- Smiles Text: "Cc1ccc(S(=O)(=O)Cc2nc(-c3ccc(C(=O)NCc4cccnc4)cc3)oc2C)cc1"
  half-life: "> 48 h"
- Smiles Text: "O=C(O)CCCc1ccc(N(CCCl)CCCl)cc1"
  half-life: "15.3 h"

Could you now consider this next molecule?
Incoming: Endpoint output: half-life of `O=C(Cc1ccccc1)Nc1ccc(-c2nc3cc(NC(=O)Cc4ccccc4)ccc3[nH]2)cc1` . Value?
Outgoing: > 48 h
